These data points were gathered from patent US8846951B2.

assay-system: 5HT2C receptors (Homo sapiens, UniProt P28335)
Sequence (P28335 33-458): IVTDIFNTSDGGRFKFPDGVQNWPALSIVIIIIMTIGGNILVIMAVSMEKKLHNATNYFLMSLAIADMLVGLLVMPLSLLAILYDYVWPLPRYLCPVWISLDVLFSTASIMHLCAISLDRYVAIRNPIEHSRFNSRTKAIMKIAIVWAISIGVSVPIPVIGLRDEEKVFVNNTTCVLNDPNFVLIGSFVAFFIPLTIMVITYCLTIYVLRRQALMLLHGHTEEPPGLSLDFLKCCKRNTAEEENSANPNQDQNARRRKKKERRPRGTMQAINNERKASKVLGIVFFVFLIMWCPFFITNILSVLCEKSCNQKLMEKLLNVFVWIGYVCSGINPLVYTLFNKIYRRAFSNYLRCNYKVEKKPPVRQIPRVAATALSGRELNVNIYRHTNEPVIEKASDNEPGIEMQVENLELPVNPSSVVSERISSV
experiment-notes: Human 5-HT2C functional high throughput screening assay in CHO-K1 cells (calcium flux)
Assay type: cell-based
Set-up: expressed in transfected cells; host or cells: CHO-K1 cells
run-conditions: CHO-K1; 5-HT2C; maximum functional response as percentage relative to the effect of serotonin
Each entry below carries its reported Emax.
Record the value in %, omitting the unit from your answer.

- compound: "COc1ccc2c(c1)OCC[C@H]1CNC[C@H]21 (relative stereo)"
  observed-property: "Emax"
  units-symbol: "%"
  number: 100
- compound: "Fc1cccc2c1OCC[C@H]1CNC[C@H]21 (relative stereo)"
  observed-property: "Emax"
  units-symbol: "%"
  number: 100
- compound: "c1cncc(-c2cccc3c2OCC[C@H]2CNC[C@H]32)c1 (relative stereo)"
  observed-property: "Emax"
  units-symbol: "%"
  number: 90
- compound: "CCC(C)Oc1ccc2c(c1)C(=O)NC[C@@H]1CN(C)C[C@@H]21 (relative stereo)"
  observed-property: "Emax"
  units-symbol: "%"
  number: 120
- compound: "CN1C[C@H]2CNC(=O)c3ccc(F)cc3[C@@H]2C1 (relative stereo)"
  observed-property: "Emax"
  units-symbol: "%"
  number: 85

// Emax lookup, key: Fc1ccc2c(c1)OCC[C@H]1CN(Cc3ccccc3)C[C@H]21 (relative stereo)
110
